The values you see were collected from ChEMBL document CHEMBL1145338.

Target: Mitogen-activated protein kinase 14 (Homo sapiens, UniProt Q16539)
Sequence (Q16539 whole entry): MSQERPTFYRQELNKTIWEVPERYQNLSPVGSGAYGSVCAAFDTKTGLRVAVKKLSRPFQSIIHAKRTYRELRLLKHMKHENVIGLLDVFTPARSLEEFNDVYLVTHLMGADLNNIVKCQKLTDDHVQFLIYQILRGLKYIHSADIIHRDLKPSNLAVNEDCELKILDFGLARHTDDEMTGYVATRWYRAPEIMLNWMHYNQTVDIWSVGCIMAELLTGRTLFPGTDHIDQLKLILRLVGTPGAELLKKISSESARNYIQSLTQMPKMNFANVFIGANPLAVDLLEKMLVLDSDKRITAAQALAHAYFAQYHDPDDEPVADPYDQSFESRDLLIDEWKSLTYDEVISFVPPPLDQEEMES
Experiment: Inhibition of p38alpha
pIC50: −log10 of the molar value.
A collection of molecules and their measured pIC50
Attribute Measured: pIC50

> print(dat)
                                   molecule                               target.desc  attribute.measured  reported.value
1  COc1ccc(N(C(=O)Oc2c(C)cccc2C)c2ccnc(Nc3ccc(N4CCN(C)CC4)cc3)n2)cc1  Mitogen-activated protein kinase 14 (Homo sapiens, UniProt Q16539)               pIC50            6.49
2  COc1ccc(N(C(=O)Oc2c(C)cccc2C)c2ccnc(Nc3cc(OC)c(OCCCN4CCN(C)CC4)c(OC)c3)n2)c(OC)c1  Mitogen-activated protein kinase 14 (Homo sapiens, UniProt Q16539)               pIC50            6.28
3  Cc1cccc(C)c1OC(=O)N(c1cccc(-c2ccccc2)c1)c1ccnc(Nc2ccc(N3CCN(C)CC3)cc2)n1  Mitogen-activated protein kinase 14 (Homo sapiens, UniProt Q16539)               pIC50            5.10
4  COc1ccc(N(C(=O)Oc2c(C)cccc2C)c2ccnc(Nc3ccc(OCCCN4CCN(C)CC4)c(F)c3)n2)c(OC)c1  Mitogen-activated protein kinase 14 (Homo sapiens, UniProt Q16539)               pIC50            5.89
